Measured soluble fraction (log2), listed per entry.
TEST_SUMMARY: soluble fraction after stress (log2 fold change); higher = more stays soluble; pooled small domains, quantitative proteomics;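 note: 20 min heating vs room temperature control held 20 min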
RUN_CONDITIONS: stress: 75 degC
Keep the answer to the number alone.

Please supply the value of reported soluble fraction (log2) for the item HMAIELIDLIKNPETAPFSKLKYLKWMPEAEVTGFFNNLFQLNVTARETGDWSTVDKFLEDEGDRIAAQVA
-0.0284

Retrieve soluble fraction (log2) measured for HMSVPRVWTDIQGRRVKGDFEGLRGDLVVLRVGGKSYAFPLVRLIASDQAYARSLVAGNPSK and print it.
-1.5

// fetch soluble fraction (log2) given entry HMQQTAEDWKNKGDSLTAQSEYVEAIAAYDEAIRLDPNYAPAWSNKGNALKNLGEYYKAIQAYDEAIRL
0.104

Return soluble fraction (log2) (reported value) for this sequence: HMLKTADAIASVLLTRIQAGEFSAGRLPAERALSEAFSTTRITLREALGKLEAQGMIYRELRRGWFIA
-1.85
